- target: Alpha-2C adrenergic receptor (Homo sapiens) (UniProt P18825)
- Sequence (P18825 whole entry, looked up): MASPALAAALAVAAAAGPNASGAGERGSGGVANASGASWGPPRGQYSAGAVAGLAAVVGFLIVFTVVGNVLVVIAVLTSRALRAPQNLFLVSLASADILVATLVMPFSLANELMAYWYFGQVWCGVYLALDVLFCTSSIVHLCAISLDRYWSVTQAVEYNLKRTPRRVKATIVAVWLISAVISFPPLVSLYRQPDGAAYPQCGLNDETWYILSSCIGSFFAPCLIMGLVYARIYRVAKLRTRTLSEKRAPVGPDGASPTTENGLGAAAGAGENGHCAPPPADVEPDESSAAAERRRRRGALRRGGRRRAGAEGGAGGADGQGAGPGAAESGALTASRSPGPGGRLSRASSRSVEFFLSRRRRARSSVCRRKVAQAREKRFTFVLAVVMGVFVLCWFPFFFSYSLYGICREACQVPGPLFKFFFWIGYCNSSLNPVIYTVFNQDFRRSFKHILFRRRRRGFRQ
- testDescription: modulators of alpha2C/GIRK thallium flux, primary screen, cell-based, HEK293 alpha2C/GIRK1/2 (AID 624);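 further: slope of fluorescence ratio to pre-addition baseline per second over 15 to 24 s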
- conditionInfo: thallium flux BTC fluorescence, at 10 µM, actives lie on both sides
Property: slope; scope: individual compounds
endpointLabel: slope

Cc1noc(C)c1S(=O)(=O)N1CCCC(C(=O)NCCc2ccc(Cl)cc2)C1 (stereo not drawn) ... 0.00592
OC(CNCC1COc2ccccc2O1)COCc1cccs1 (stereo not drawn) ... 0.00544
Cc1nnc2n(-c3ccc(Cl)cc3)c(=O)c3c4c(sc3n12)CN(C)CC4 ... 0.00624
O=C(Nc1cccc(-c2nnc(-c3ccccc3)o2)c1)C1CCCCC1 ... 0.00531
C=CCn1c(=O)c2ccccc2n2c(SCC(=O)Nc3cc(C)on3)nnc12 ... 0.00622
O=C(C1CCN(c2nnc(-n3cccc3)s2)CC1)N1CCOCC1 ... 0.00592
CCOC(=O)N1CCN(c2c(N3CCN(c4ccccc4OC)CC3)c(=O)c2=O)CC1 ... 0.0077
Cc1ccc(-c2noc(CN3C(C)CCCC3C)n2)cc1 (stereo not drawn) ... 0.00754
CC1CCN(C(=O)CSc2nnc(-c3ccc(S(=O)(=O)N4CCOCC4)cc3)n2C)CC1 ... 0.00393
CC(C)[C@H](NC(=O)OC(C)(C)C)c1nnc(SCC(=O)Nc2ccc(Br)cc2)o1 ... 0.00396
CC1CCN(S(=O)(=O)c2cn(CC(=O)N3CCN(C)CC3)c(=O)c3ccccc23)CC1 ... 0.00569
CNC(=O)CN(c1ccc(C(C)C)cc1)S(C)(=O)=O ... 0.00372
CCSc1nncn1/N=C/c1ccc(OC)c(OC)c1 ... 0.00581
CCN(CC)CCN1C(=O)Cn2c(C)c(C)c3cccc1c32 ... 0.00506
CCc1cccc2c(=O)c(C(=O)N3CCCCCC3)c[nH]c12 ... 0.0048
O=C(NCc1ccco1)c1ccccc1Nc1ccc(F)cc1 ... 0.00433
CCN(CC)c1ccc(NC(=O)c2nc3nc(C)cc(C(F)F)n3n2)cc1 ... 0.00747
COc1cccc(C(=O)NC2=NCCS2)c1 ... 0.00469
CCOC(=O)c1ccc2[nH]c3c(c2c1)CN(C)CC3 ... 0.00602
Cc1ccc(OCC(O)CN2C(=O)NC(C)(C)C2=O)cc1C (stereo not drawn) ... 0.00799
O=C(c1ccccc1Oc1nnnn1-c1ccccc1)N1CCOCC1 ... 0.00699
COC(=O)Cc1c(C)c2ccc(OCC(=O)N3CCOCC3)cc2oc1=O ... 0.00545
O=C(Cn1cnc2ccccc2c1=O)NCCC(=O)N1CCN(c2ccccc2)CC1 ... 0.0056
COc1cc(Cl)c(C)cc1NC(=O)COC(=O)c1cnc(C)cn1 ... 0.00519
COc1ccc(-n2c(SCc3ccc(C#N)cc3)nnc2-c2ccccn2)cc1 ... 0.00521
CCC(=O)N1CCN=C1SCc1ccc(Cl)cc1 ... 0.00598
CCCCOc1ccccc1C1C(C(N)=O)=C(C)Nc2nnnn21 (stereo not drawn) ... 0.0066
CCN1CCN(c2nc3c(c(=O)[nH]c(=O)n3C)n2CCSc2nc3ccccc3s2)CC1 ... 0.00469
CC(C)CN(C(=O)c1ccc(=O)n(C)n1)c1nc2ccccc2s1 ... 0.00541
CC(C)(C)Nc1nc(NC(C)(C)C)nc(-n2ccnc2)n1 ... 0.00537
Cc1ccccc1Cc1c(C)nc2c(C(=O)N3CCN(Cc4ccc5c(c4)OCO5)CC3)cnn2c1C ... 0.00443
COc1cc(S(=O)(=O)n2nnc3ccccc32)c(OC)cc1Cl ... 0.00868
CCOC(=O)c1cccc(NC(=O)CNS(=O)(=O)c2cccs2)c1 ... 0.00596
CCCCn1nnc(NC(=O)c2cc3ccccc3o2)n1 ... 0.00257
COc1ccc(C(C)N2CC34C=CC(O3)C(C(=O)OCC(C)C)C4C2=O)cc1 (stereo not drawn) ... 0.00626
O=C(CNC(=O)c1cc2ccccc2o1)NCc1cccs1 ... 0.0103
CC(=O)N1CCN(C(=O)COc2ccc(Br)cc2)CC1 ... 0.00597
Nc1nc(-c2ccc(Cl)cc2)nn1C(=O)c1cccnc1 ... 0.00507
COc1ccc(C(=O)Oc2c(CN3CCOCC3)cc(Cl)c3cccnc23)cc1OC ... 0.00812
COC(=O)c1cc(-c2ccccc2)sc1NC(=O)c1cc(C)on1 ... 0.00783
CC1(C)NC(=O)N(CCOc2cccc(Cl)c2Cl)C1=O ... 0.00521
Nc1cc(CN2C(=O)c3ccccc3C2=O)cc(Cl)c1O ... 0.00582
O=C(CSc1nnc(-c2ccc(Br)o2)n1Cc1ccccc1)c1ccccc1F ... 0.00522
